Where these numbers come from: patent US20230303575A1

Catalogue of molecules with associated IC50
Target: FGFR2 N549K (Homo sapiens, UniProt P21802, N549K)
Construct: P41212 (Transcription factor ETV6)
Sequence (P21802 481-770 N549K limits assumed): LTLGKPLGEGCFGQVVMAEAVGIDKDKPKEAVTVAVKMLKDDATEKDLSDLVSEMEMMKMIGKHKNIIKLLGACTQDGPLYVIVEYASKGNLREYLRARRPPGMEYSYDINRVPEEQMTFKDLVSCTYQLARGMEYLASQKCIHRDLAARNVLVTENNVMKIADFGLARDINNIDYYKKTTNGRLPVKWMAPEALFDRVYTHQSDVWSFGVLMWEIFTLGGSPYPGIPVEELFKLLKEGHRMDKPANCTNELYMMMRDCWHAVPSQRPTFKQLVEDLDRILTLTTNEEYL
Assay: Cell proliferation assay for Tel-FGFR2 N549K in BaF3
Type: cell-based
Conditions: BaF3 cells expressing FGFR2 N549K fusion, 48 hrs, CellTiter Glo

Known results for molecules:
>>> obs_value("C=CC(=O)N1CC[C@H](n2cc(C#Cc3ccc4oc(C)nc4c3)c3c(N)ncnc32)C1 [Example 2]")
"0.5 to 5 nM"
>>> obs_value("C=CC(=O)N1CC[C@H](n2cc(C#Cc3cc4nc(C5CC5)sc4cc3F)c3c(N)ncnc32)C1 [Example 48]")
"0.5 to 5 nM"
>>> obs_value("C=CC(=O)N1CC[C@H](n2nc(C#Cc3cnc4sc(C)nc4c3)c3c(N)ncnc32)C1 [Example 41]")
"5 to 50 nM"
>>> obs_value("C=CC(=O)N1CC[C@H](n2nc(C#Cc3ccc4sc(C(F)F)nc4c3)c3c(N)ncnc32)C1 [Example 55]")
"0.5 to 5 nM"

Documented IC50 of C=CC(=O)N1CC[C@H](n2nc(C#Cc3ccc4sc(CC)nc4c3)c3c(N)ncnc32)C1 [Example 53] : 0.5 to 5 nM

Briefly, IC50 measured for C=CC(=O)N1C[C@@H](n2nc(C#Cc3c(F)cc4sc(N5CCC5)nc4c3F)c3c(N)ncnc32)C[C@@H]1COC [Example 69] : 0.5 to 5 nM

Note to self: IC50 recorded for C=CC(=O)N1CC[C@H](n2nc(C#Cc3ccc4oc(C5CC5)nc4c3)c3c(N)ncnc32)C1 [Example 20] was 0.5 to 5 nM

Query C=CC(=O)N1C[C@@H](n2nc(C#Cc3c(F)cc4sc(C5CC5)nc4c3F)c3c(N)ncnc32)C[C@@H]1COC [Example 68] yields IC50 of ≤ 0.5 nM

The reported IC50 of the molecule C=CC(=O)N1CC[C@H](n2cc(C#Cc3ccc4oc(NC)nc4c3)c3c(N)ncnc32)C1 [Example 7] was 5 to 50 nM

GET /value?item= C=CC(=O)N1CC[C@H](n2nc(C#Cc3ccc4sc(C5CC5)nc4c3)c3c(N)ncnc32)C1 [Example 54] &field=IC50 returns 0.5 to 5 nM

* * *

Target: FGFR3 V555M (Homo sapiens, UniProt P22607, V555M)
Construct: P41212 (Transcription factor ETV6)
Sequence (P22607 472-761 V555M limits assumed): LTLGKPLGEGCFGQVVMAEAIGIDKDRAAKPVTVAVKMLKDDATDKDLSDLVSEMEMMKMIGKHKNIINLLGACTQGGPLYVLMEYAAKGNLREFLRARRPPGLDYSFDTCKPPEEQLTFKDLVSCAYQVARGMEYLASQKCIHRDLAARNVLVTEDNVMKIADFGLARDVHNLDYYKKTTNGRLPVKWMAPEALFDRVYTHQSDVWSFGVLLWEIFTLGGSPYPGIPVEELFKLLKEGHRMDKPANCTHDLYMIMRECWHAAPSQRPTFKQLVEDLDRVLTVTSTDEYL
Test: Cell proliferation assay for FGFR3 V555M in BaF3
Format: cell-based
Conditions: BaF3 cells expressing FGFR3 V555M fusion, 48 hrs, CellTiter Glo
Property label: IC50

>>> obs_value("C=CC(=O)N1CC[C@H](n2nc(C#Cc3cc4nc(C5CC5)oc4cc3F)c3c(N)ncnc32)C1")
"0.5 to 5 nM"

GET /value?item= "C=CC(=O)N1CC[C@H](n2nc(C#Cc3cc4nc(NCC)oc4cc3F)c3c(N)ncnc32)C1" &field=IC50 returns 5 to 50 nM

Notebook: "C=CC(=O)N1CC[C@H](n2cc(C#Cc3ccc4sc(C(F)F)nc4c3)c3c(N)ncnc32)C1" , IC50 read as 5 to 50 nM

Measured IC50, "C=CC(=O)N1CC[C@H](n2cc(C#Cc3ccc4oc(CC)nc4c3)c3c(N)ncnc32)C1" : 5 to 50 nM
